- TESTED_ON: Ascaris suum succinate-ubiquinone reductase (mitochondrial complex II) (Ascaris suum, UniProt O44074+P92506+P92507)
- Construct: from tissue; host or cells: mitochondria from adult Ascaris suum muscle
- Sequence (O44074 22-282): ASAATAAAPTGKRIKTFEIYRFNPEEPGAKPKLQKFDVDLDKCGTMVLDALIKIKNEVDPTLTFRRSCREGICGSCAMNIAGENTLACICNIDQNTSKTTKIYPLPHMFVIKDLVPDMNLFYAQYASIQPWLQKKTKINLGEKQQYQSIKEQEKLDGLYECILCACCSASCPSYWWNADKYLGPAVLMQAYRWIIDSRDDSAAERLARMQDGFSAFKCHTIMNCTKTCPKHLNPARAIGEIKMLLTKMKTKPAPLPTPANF
- Sequence (P92506 32-188): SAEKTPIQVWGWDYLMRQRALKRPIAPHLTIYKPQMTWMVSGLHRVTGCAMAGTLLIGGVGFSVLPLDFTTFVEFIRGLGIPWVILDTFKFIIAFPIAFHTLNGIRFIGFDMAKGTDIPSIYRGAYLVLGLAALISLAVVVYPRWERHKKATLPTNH
- Sequence (P92507 26-156): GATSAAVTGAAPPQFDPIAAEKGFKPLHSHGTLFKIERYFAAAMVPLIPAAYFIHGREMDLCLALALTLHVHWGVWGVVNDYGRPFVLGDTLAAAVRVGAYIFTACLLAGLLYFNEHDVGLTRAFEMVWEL
- Sequence (Q33862 19-645 partner): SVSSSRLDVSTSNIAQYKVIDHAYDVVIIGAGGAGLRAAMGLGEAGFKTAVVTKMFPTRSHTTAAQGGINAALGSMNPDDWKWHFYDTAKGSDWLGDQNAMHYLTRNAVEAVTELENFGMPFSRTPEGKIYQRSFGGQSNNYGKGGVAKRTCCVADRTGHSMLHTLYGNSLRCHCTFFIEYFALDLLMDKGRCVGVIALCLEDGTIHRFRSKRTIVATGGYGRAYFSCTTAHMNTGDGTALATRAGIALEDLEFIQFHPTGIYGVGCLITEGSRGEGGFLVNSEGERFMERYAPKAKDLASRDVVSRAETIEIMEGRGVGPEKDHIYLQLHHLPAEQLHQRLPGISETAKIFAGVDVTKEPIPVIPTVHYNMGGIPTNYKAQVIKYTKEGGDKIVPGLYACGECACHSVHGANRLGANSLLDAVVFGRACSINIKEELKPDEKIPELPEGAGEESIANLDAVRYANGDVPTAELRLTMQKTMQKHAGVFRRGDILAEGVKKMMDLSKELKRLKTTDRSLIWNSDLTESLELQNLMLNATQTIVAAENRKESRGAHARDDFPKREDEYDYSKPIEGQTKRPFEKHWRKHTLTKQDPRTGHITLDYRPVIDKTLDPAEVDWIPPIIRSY
- ASSAY: In vitro inhibitory activity on Ascaris suum succinate-ubiquinone reductase (mitochondrial complex II)
- Type: biochemical
- RUN_CONDITIONS: porcine IC50 (B) / Ascaris suum IC50 (A)
- Protocol: In Vitro Measurement of Inhibitory Activity on Ascaris suum Succinate-Ubiquinone Reductase (Mitochondrial Complex II) To a solution containing 50 mM potassium phosphate (pH 7.4) and 0.1% (w/v) sucrose monolaurate, an electron acceptor ubiquinone-2 (UQ2) was added at a final concentration of 60 μM, and the mixture was allowed to stand at 25° C. for 20 minutes. […]
PROPERTY: Selectivity B/A

Summary for this molecule, `O=C(NCCc1ccc(Cl)cc1)c1ccccc1C(F)(F)F` : Selectivity B/A is >27000

Summary for this molecule, `CC(C)(NC(=O)c1ccccc1C(F)(F)F)c1ccccc1` : Selectivity B/A is >709

Summary for this molecule, `Cc1ccc(CCNC(=O)c2ccccc2C(F)(F)F)c(C)c1` : Selectivity B/A is >53300

Summary for this molecule, CC(NC(=O)c1ccccc1C(F)(F)F)c1ccc(Cl)cc1Cl (stereo not shown) : Selectivity B/A is >6430

Summary for this molecule, CC(CCc1ccc(Cl)cc1Cl)NC(=O)c1ccccc1C(F)(F)F (stereo not shown) : Selectivity B/A is >3448
